- System: basil 'Genovese'
- ASSAY NAME: Content analysis of basil: protein, minerals (Example 4, Tables 10-11)
- Type: in vivo
- DETAILS: 28 DA-A, rates g ai/ha: chlroprifos 3370, chlorothalonil 7900, paclobutrazol 9.7, mepiquat-chloride 37, Isoxadifen 16, Napthalic anhydride 527, + NIS 0.25 % v/v
# Iron, Percent Increase Over the Untreated Check (on a % dry matter basis) >= 30 % check gives 1.0, anything below gives 0.0

Asked: Dear colleague, could you confirm whether O=C1OC(=O)c2cccc3cccc1c23 [napthalic anhydride] has Iron, Percent Increase Over the Untreated Check (on a % dry matter basis) at or above 30 % check?
Given back: 0.0

Asked: Dear colleague, could you confirm whether N#Cc1c(Cl)c(Cl)c(Cl)c(C#N)c1Cl has Iron, Percent Increase Over the Untreated Check (on a % dry matter basis) at or above 30 % check?
Given back: 0.0

Asked: Dear colleague, could you confirm whether C[N+]1(C)CCCCC1 [mepiquat-chloride] has Iron, Percent Increase Over the Untreated Check (on a % dry matter basis) at or above 30 % check?
Given back: 0.0

Asked: Dear colleague, could you confirm whether CCOP(=S)(OCC)Oc1nc(Cl)c(Cl)cc1Cl has Iron, Percent Increase Over the Untreated Check (on a % dry matter basis) at or above 30 % check?
Given back: 1.0

Asked: Dear colleague, could you confirm whether CC(C)(C)[C@@H](O)[C@@H](Cc1ccc(Cl)cc1)n1cncn1 (racemic) has Iron, Percent Increase Over the Untreated Check (on a % dry matter basis) at or above 30 % check?
Given back: 0.0

Asked: Dear colleague, could you confirm whether CCOC(=O)C1=NOC(c2ccccc2)(c2ccccc2)C1 has Iron, Percent Increase Over the Untreated Check (on a % dry matter basis) at or above 30 % check?
Given back: 0.0

* * *

- Tested on: kale 'Red Russian'
- ASSAY NAME: Visual injury of kale after insecticide, fungicide, PGRs, safeners (Example 4)
- DETAILS: 28 DA-A, rates g ai/ha: chlropyrifos 1120, chlorothalonil 2630, paclobutrazol 3.23, mepiquat-chloride 12.3, + NIS 0.25 % v/v
Answer each item with its documented Phytotoxicity General.
State the value with its unit after it.

Asked: Any idea what its Phytotoxicity General is? The molecule is CCOP(=S)(OCC)Oc1nc(Cl)c(Cl)cc1Cl
Given back: 4%

Asked: Any idea what its Phytotoxicity General is? The molecule is N#Cc1c(Cl)c(Cl)c(Cl)c(C#N)c1Cl
Given back: 5%

Asked: Any idea what its Phytotoxicity General is? The molecule is CC(C)(C)[C@@H](O)[C@@H](Cc1ccc(Cl)cc1)n1cncn1 (racemic)
Given back: 3%

Asked: Any idea what its Phytotoxicity General is? The molecule is C[N+]1(C)CCCCC1 [mepiquat-chloride]
Given back: 1%

* * *

Answer each item with its documented Phytotoxicity Chlorosis.
- System: basil 'Genovese'
- ASSAY NAME: Visual injury of basil after insecticide, fungicide, PGRs, safeners (Example 4)
- DETAILS: 14 DA-A, rates g ai/ha: chlropyrifos 3370, chlorothalonil 7900, paclobutrazol 9.7, mepiquat-chloride 37, Isoxadifen 16, Napthalic anhydride 527, + NIS 0.25 % v/v
Write the value in % as a bare number.

Asked: Any idea what its Phytotoxicity Chlorosis is? The compound is CCOP(=S)(OCC)Oc1nc(Cl)c(Cl)cc1Cl
Given back: 8

Asked: Any idea what its Phytotoxicity Chlorosis is? The compound is N#Cc1c(Cl)c(Cl)c(Cl)c(C#N)c1Cl
Given back: 5

Asked: Any idea what its Phytotoxicity Chlorosis is? The compound is O=C1OC(=O)c2cccc3cccc1c23 [napthalic anhydride]
Given back: 2

Asked: Any idea what its Phytotoxicity Chlorosis is? The compound is CC(C)(C)[C@@H](O)[C@@H](Cc1ccc(Cl)cc1)n1cncn1 (racemic)
Given back: 7

Asked: Any idea what its Phytotoxicity Chlorosis is? The compound is CCOC(=O)C1=NOC(c2ccccc2)(c2ccccc2)C1
Given back: 8

Asked: Any idea what its Phytotoxicity Chlorosis is? The compound is C[N+]1(C)CCCCC1 [mepiquat-chloride]
Given back: 2

* * *

Answer each item with its documented Copper, Percent Increase Over the Untreated Check (on a % dry matter basis).
- Test system: basil 'Genovese'
- ASSAY NAME: Content analysis of basil: protein, minerals (Example 4, Tables 10-11)
- Type: in vivo
- DETAILS: 28 DA-A, rates g ai/ha: chlropyrifos 1120, chlorothalonil 2630, paclobutrazol 3.23, mepiquat-chloride 12.3, Isoxadifen 8, Napthalic anhydride 264, + NIS 0.25 % v/v
Write the value in % check as a bare number.

Asked: Any idea what its Copper, Percent Increase Over the Untreated Check (on a % dry matter basis) is? The molecule is CC(C)(C)[C@@H](O)[C@@H](Cc1ccc(Cl)cc1)n1cncn1 (racemic) [paclobutrazol]
Given back: 8

Asked: Any idea what its Copper, Percent Increase Over the Untreated Check (on a % dry matter basis) is? The molecule is N#Cc1c(Cl)c(Cl)c(Cl)c(C#N)c1Cl [chlorothalonil]
Given back: −17

Asked: Any idea what its Copper, Percent Increase Over the Untreated Check (on a % dry matter basis) is? The molecule is CCOC(=O)C1=NOC(c2ccccc2)(c2ccccc2)C1 [isoxadifen, isoxadifen-ethyl]
Given back: 0

Asked: Any idea what its Copper, Percent Increase Over the Untreated Check (on a % dry matter basis) is? The molecule is CCOP(=S)(OCC)Oc1nc(Cl)c(Cl)cc1Cl [chlropyrifos]
Given back: 8

Asked: Any idea what its Copper, Percent Increase Over the Untreated Check (on a % dry matter basis) is? The molecule is O=C1OC(=O)c2cccc3cccc1c23 [napthalic anhydride]
Given back: 0

Asked: Any idea what its Copper, Percent Increase Over the Untreated Check (on a % dry matter basis) is? The molecule is C[N+]1(C)CCCCC1 [mepiquat-chloride]
Given back: 0

* * *

- Tested on: kale 'Red Russian'
- ASSAY NAME: Visual injury of kale after insecticide, fungicide, PGRs, safeners (Example 4)
- DETAILS: 14 DA-A, rates g ai/ha: chlropyrifos 1120, chlorothalonil 2630, paclobutrazol 3.23, mepiquat-chloride 12.3, + NIS 0.25 % v/v
- Protocol: Greenhouse and laboratory studies were conducted to ascertain the tolerance and nutritional quality differences following postemergence applications of the insecticide chlorpyrifos, the fungicide chlorothalonil, the PGRs mepiquat-chloride and paclobutrazol, and the safeners napthalic anhydride and isoxadifen-ethyl on kale ‘Red Russian’ and basil ‘Genovese’. […]
PARAMETER MEASURED: Phytotoxicity Chlorosis
State the value with its unit after it.

Asked: Any idea what its Phytotoxicity Chlorosis is? The molecule is CC(C)(C)[C@@H](O)[C@@H](Cc1ccc(Cl)cc1)n1cncn1 (racemic) [paclobutrazol]
Given back: 10%

Asked: Any idea what its Phytotoxicity Chlorosis is? The molecule is N#Cc1c(Cl)c(Cl)c(Cl)c(C#N)c1Cl [chlorothalonil]
Given back: 10%

Asked: Any idea what its Phytotoxicity Chlorosis is? The molecule is C[N+]1(C)CCCCC1 [mepiquat-chloride]
Given back: 15%

Asked: Any idea what its Phytotoxicity Chlorosis is? The molecule is CCOP(=S)(OCC)Oc1nc(Cl)c(Cl)cc1Cl [chlropyrifos]
Given back: 15%

* * *

- System: basil 'Genovese'
- ASSAY NAME: Visual injury of basil after insecticide, fungicide, PGRs, safeners (Example 4)
- DETAILS: 14 DA-A, rates g ai/ha: chlropyrifos 3370, chlorothalonil 7900, paclobutrazol 9.7, mepiquat-chloride 37, Isoxadifen 16, Napthalic anhydride 527, + NIS 0.25 % v/v
PARAMETER MEASURED: Phytotoxicity General (%)
Write the value in % as a bare number.

Asked: Any idea what its Phytotoxicity General is? The compound is CC(C)(C)[C@@H](O)[C@@H](Cc1ccc(Cl)cc1)n1cncn1 (racemic)
Given back: 0

Asked: Any idea what its Phytotoxicity General is? The compound is C[N+]1(C)CCCCC1 [mepiquat-chloride]
Given back: 5

Asked: Any idea what its Phytotoxicity General is? The compound is N#Cc1c(Cl)c(Cl)c(Cl)c(C#N)c1Cl
Given back: 2

Asked: Any idea what its Phytotoxicity General is? The compound is O=C1OC(=O)c2cccc3cccc1c23 [napthalic anhydride]
Given back: 10

Asked: Any idea what its Phytotoxicity General is? The compound is CCOC(=O)C1=NOC(c2ccccc2)(c2ccccc2)C1
Given back: 8

Asked: Any idea what its Phytotoxicity General is? The compound is CCOP(=S)(OCC)Oc1nc(Cl)c(Cl)cc1Cl
Given back: 2

* * *

- System: basil 'Genovese'
- ASSAY NAME: Visual injury of basil after insecticide, fungicide, PGRs, safeners (Example 4)
- DETAILS: 14 DA-A, rates g ai/ha: chlropyrifos 1120, chlorothalonil 2630, paclobutrazol 3.23, mepiquat-chloride 12.3, Isoxadifen 8, Napthalic anhydride 264, + NIS 0.25 % v/v
Answer each item with its documented Phytotoxicity General.
Write the value in % as a bare number.

Asked: Any idea what its Phytotoxicity General is? The compound is O=C1OC(=O)c2cccc3cccc1c23 [napthalic anhydride]
Given back: 7

Asked: Any idea what its Phytotoxicity General is? The compound is C[N+]1(C)CCCCC1 [mepiquat-chloride]
Given back: 5

Asked: Any idea what its Phytotoxicity General is? The compound is N#Cc1c(Cl)c(Cl)c(Cl)c(C#N)c1Cl
Given back: 0

Asked: Any idea what its Phytotoxicity General is? The compound is CCOC(=O)C1=NOC(c2ccccc2)(c2ccccc2)C1
Given back: 2

Asked: Any idea what its Phytotoxicity General is? The compound is CCOP(=S)(OCC)Oc1nc(Cl)c(Cl)cc1Cl
Given back: 7

Asked: Any idea what its Phytotoxicity General is? The compound is CC(C)(C)[C@@H](O)[C@@H](Cc1ccc(Cl)cc1)n1cncn1 (racemic)
Given back: 0
